Ref: patent US20240417405A1

tested on: MOLM14 cells; test: Proliferation assay, spheroid-like growth, MOLM14 (MLL-AF9 rearranged); format: cell-based, human; settings: Homo sapiens, MOLM-14, 192 h, 8 days, confluence as measure of spheroid size, read-out: spheroid assay_OneTime MOLM14 IC50
The reader will find reported pIC50 values listed item by item below.
Bear in mind: pIC50 is minus log10 of a mol/L concentration; give just that figure.

1) CC(=O)N1CCN([C@H]2C[C@@H](C(C(C)C)N3CC4(CCN(c5ncnnc5Oc5ccc(F)cc5-c5cnc(C#N)nc5C5CC5)C4)C3)C2)CC1 (some centres unmarked) | 7.29
2) CO[C@H]1CCN(C2CC(C(C(C)C)N3CC4(CCN(c5ncnnc5Oc5ccc(F)cc5-c5nnc(C)cc5C5CC5)C4)C3)C2)C1 (single isomer, unassigned) | 6.70
3) CC(C)[C@@H]([C@H]1C[C@@H](N2CC3(COC3)C2)C1)N1CC2(CCN(c3ncnnc3Oc3ccc(F)cc3-c3cnncc3C3CC3)C2)C1 (single isomer, unassigned) | 7.96
4) Cc1ncc(-c2cc(F)ccc2Oc2nncnc2N2CCC3(C2)CN([C@@H](C(C)C)[C@H]2C[C@@H](N4CC5COCC5C4)C2)C3)c(C2CC2)n1 (mixture of isomers) | 8.72

// returns reported pIC50 for input CC(C)C([C@H]1C[C@@H](N2CCC(C(=O)N(C)C)CC2)C1)N1CC2(CCN(c3ncnnc3Oc3ccc(F)cc3-c3cncnc3C3CC3)C2)C1 (some centres unmarked)
7.30

---

Target: menin/MLL (terbium chelate-labeled menin, FITC-MBM1 peptide) (Homo sapiens, UniProt O00255, T541A)
Construct: Menin (a.a 1-610-6xhis tag)
Sequence (O00255 with tags, fused parts or gaps T541A): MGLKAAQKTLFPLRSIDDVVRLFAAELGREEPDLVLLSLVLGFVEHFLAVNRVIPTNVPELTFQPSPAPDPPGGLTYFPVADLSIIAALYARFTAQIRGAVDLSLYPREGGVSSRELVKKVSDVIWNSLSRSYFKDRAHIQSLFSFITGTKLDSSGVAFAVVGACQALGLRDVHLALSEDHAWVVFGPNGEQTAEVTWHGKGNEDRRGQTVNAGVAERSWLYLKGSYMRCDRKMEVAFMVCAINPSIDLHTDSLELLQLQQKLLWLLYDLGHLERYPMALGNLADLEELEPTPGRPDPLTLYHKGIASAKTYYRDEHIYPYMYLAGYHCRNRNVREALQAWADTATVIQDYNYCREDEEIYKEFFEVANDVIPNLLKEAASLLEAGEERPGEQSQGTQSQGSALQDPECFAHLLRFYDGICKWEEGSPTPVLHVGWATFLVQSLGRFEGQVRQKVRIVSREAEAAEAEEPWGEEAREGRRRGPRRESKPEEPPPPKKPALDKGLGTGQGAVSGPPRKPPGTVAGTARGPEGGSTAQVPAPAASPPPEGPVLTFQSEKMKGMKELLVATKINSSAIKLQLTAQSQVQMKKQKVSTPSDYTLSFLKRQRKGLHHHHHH
Assay: Menin/MLL homogenous time-resolved fluorescence (HTRF) assay
Conditions: 30 min incubation
property: pIC50
The meaning of pIC50 here: minus log10 of the concentration in molar units.

Which pIC50 is reported for this compound? Cc1ncc(-c2cc(F)ccc2Oc2nncnc2N2CCC3(C2)CN([C@@H](C(C)C)[C@H]2C[C@@H](N4CC5COCC5C4)C2)C3)c(C2CC2)n1 (mixture of isomers)
9.96

And then CC(=O)N1CC[C@]12CCN([C@H]1C[C@@H]([C@@H](C(C)C)N3CC4(CCN(c5ncnnc5Oc5ccc(F)cc5-c5cncnc5C5CC5)C4)C3)C1)C2 (single isomer, unassigned) , what is it?
9.70
